All values here come from PubChem BioAssay (NCI).

tested on: HCT-15 colon; test: NCI-60 one-dose screen, 48 h (100 = growth as untreated, 0 = no growth, -100 = all killed); conditions: 10 µM unless noted
This is part of a sample that, as a whole, favours compounds with a hit. Of some 83,000 tested, about 20% had one in any assay.
measuredQuantity: growth (%)
The response must be a number in % with no trailing unit.

Worked examples follow.
CCN1C(=O)N(CC)C2Nn3c(s/c(=C\c4cccc([N+](=O)[O-])c4)c3=O)=NC21 (stereo not given) : 31.8
O=c1[nH]c2ccccc2n1C1CCN(CCOc2ccccc2)CC1 : 85.1
CCCCCCCCCOc1c(OC)cc(C2CC(=O)Nc3c2c(C)nn3-c2nc3ccccc3[nH]2)cc1OC (stereo not given) : -30.8
O=C(/C=C/c1c(Cl)nc2sccn12)c1ccc(F)c(F)c1 : 90.4
Cc1cc(NCCCCNc2ccnc3cc(Cl)ccc23)nc(Nc2ccc(C(=O)N3CCCC3)cc2)n1 : 7.18

[in] What growth appears in the records for this molecule with HCT-15 colon? `COc1ccc(C(=NN=C(N)N)c2ccc(OC)cc2)cc1`
[out] 69.1

[in] Could you do the same for `Cc1cc(N2CCCC2)nc(NCc2cc(Nc3ccnc4cc(Cl)ccc34)ccc2F)n1` , please?
[out] -74.3

[in] Could you do the same for `CC1=NOC(=O)/C1=C\c1ccc(O)cc1` , please?
[out] 104

[in] Could you do the same for `O=c1cc(-c2ccc(Cl)cc2)[nH]c2ccccc12` , please?
[out] 59.1

[in] Could you do the same for `Cc1c(O)cc(-c2cnc(N/N=C\c3ccc(Cl)cc3)s2)c(O)c1C` , please?
[out] 85
